Test system: P. aeruginosa
Assay type: cell-based, Pseudomonas aeruginosa
Conditions: relative to the untreated strain, OD600 nm after 12 h
*1 amine or outer side, *2 acyl side, *3 side chain or, on linkers, in order; H or OH if unused. Where a SMILES comes first, the peptide text is derived from it. Bridges are numbered along the chain shown (N, C = ends). [ ]: non-standard residue; d: D form. The star is where a group is joined. hTyr(3S-OH,4S-OH,3'-OSO3H) = N[C@H](C(=O)O)[C@H](O)[C@@H](O)c1ccc(O)c(OS(=O)(=O)O)c1; Orn(4R-OH,5R-OH) = O=C([C@H](C[C@@H](O)[C@@H](O)N[*:3])N[*:1])[*:2]; Pro(3S-OH,4S-Me) = C[C@H]1CN[C@H](C(=O)O)[C@H]1O; X1 = CCCCCOc1ccc(-c2cc(-c3ccc(C(=O)*)cc3)no2)cc1; Gln(3R-OH) = NC(=O)C[C@@H](O)[C@H](N)C(=O)O; Hyp = O=C(O)[C@@H]1C[C@@H](O)CN1
Classify as follows. Reported % Growth Inhibition greater than or equal to 60%: 1. Reported % Growth Inhibition below: -1.

molecule: CCCCCCCCc1ccc(CCC(N)(CO)CO)cc1
label class: 1
//
molecule: CCCCCOc1ccc(-c2cc(-c3ccc(C(=O)N[C@H]4C[C@@H](O)[C@@H](O)NC(=O)[C@@H]5[C@@H](O)[C@@H](C)CN5C(=O)[C@H]([C@H](O)CC(N)=O)NC(=O)[C@H]([C@H](O)[C@@H](O)c5ccc(O)c(OS(=O)(=O)O)c5)NC(=O)[C@@H]5C[C@@H](O)CN5C(=O)[C@H]([C@@H](C)O)NC4=O)cc3)no2)cc1 [Micafungin] (X1-[Orn(4R-OH,5R-OH)]T[Hyp][hTyr(3S-OH,4S-OH,3'-OSO3H)][Gln(3R-OH)][Pro(3S-OH,4S-Me)]; lactam 1-C)
label class: -1
//
molecule: [H]/N=C(\N/C(=N/[H])NCCCCCCNC(=N)NC(=N)Nc1ccc(Cl)cc1)Nc1ccc(Cl)cc1
label class: 1
//
molecule: O=C(N[C@H](CO)[C@H](O)c1ccc([N+](=O)[O-])cc1)C(Cl)Cl
label class: 1
//
molecule: C[C@]12CC[C@@H]3c4ccc(O)cc4CC[C@H]3[C@@H]1CC[C@@H]2O
label class: 1

---

System: phzB2-lacZ
Assay: phzB2-lacZ reporter dose-response
Assay type: cell-based
Details: Pseudomonas aeruginosa, read-out: IC50, concentration at which half-maximal down-regulation was observed (phzB2 reporter)

chemical string: N=C(N)NC(=O)Cc1c(Cl)cccc1Cl
measurement target: phzB2-lacZ
IC50 [µM]: 19

---

System: virulence factor expression (seven lacZ reporter strains)
Format: cell-based, Pseudomonas aeruginosa
Conditions: LacZ activity normalized to negative control, seven reporter strains
readout label: effect on virulence factor expression in screen

chemical string: N=C(N)NC(=O)Cc1c(Cl)cccc1Cl
result: A similar effect

chemical string: Cc1ccc(C(=O)c2cc(O)c(O)c([N+](=O)[O-])c2)cc1
result: A similar effect

---

System: phzF1-lacZ
Assay: microbe, parasite or virus in culture
Type: cell-based
Conditions: Pseudomonas aeruginosa; read-out: EC50, concentration at which induction of phzF1-lacZ was half-maximal
pEC50: −log10 of the molar value.
readout label: pEC50

chemical string: CCN1CCN(C(=O)N[C@@H](C(=O)N[C@@H]2C(=O)N3[C@@H]2SC(C)(C)[C@@H]3C(=O)O)c2ccccc2)C(=O)C1=O
readout label: pEC50
readout number: 5.08
--
chemical string: CC(C)(O/N=C(\C(=O)N[C@@H]1C(=O)N2C(C(=O)O)=C(C[n+]3ccccc3)CS[C@H]12)c1csc(N)n1)C(=O)O
readout label: pEC50
readout number: 4.68

Measured values drawn from patent US11813235B2 for this set.
